I'd appreciate it if you could supply inhibition of growth at 0.05 µg/mL values for the items below.
Tested on: Leptosphaeria nodorum (LEPTNO)
Measurement Notes: In vitro fungitoxicity of hydrazones with and without copper towards Leptosphaeria nodorum (Example 26)
Assay type: cell-based
Settings: Parastagonospora nodorum, 72 h, copper-minus medium; test compound Concn. 0.05 μg/mL; 72 h at 25° C.; read-out: LEPTNO % Inhn. Minus Copper Observed
Write the numeric value and append its unit.

The compound O=C(N/N=C/c1cc(C(F)(F)F)ccc1O)c1ccc(Cl)cc1 showed inhibition of growth at 0.05 µg/mL equal to 2.9%

The compound O=C(N/N=C/c1ccc(Cl)c(Cl)c1O)c1ccccc1O showed inhibition of growth at 0.05 µg/mL equal to 11.1%

The compound O=C(N/N=C/c1cc(C(F)(F)F)cc(C(F)(F)F)c1O)c1cccc(F)c1 showed inhibition of growth at 0.05 µg/mL equal to 10.9%

The compound O=C(N/N=C/c1cccc(Cl)c1O)c1cccc(Cl)c1 showed inhibition of growth at 0.05 µg/mL equal to 26.1%

The compound O=C(N/N=C/c1ccc(Cl)c(Cl)c1O)c1ccc(F)cc1 showed inhibition of growth at 0.05 µg/mL equal to 56.7%

The compound COc1cc(O)c(/C(C)=N/NC(=O)c2ccccc2C)c(OC)c1 showed inhibition of growth at 0.05 µg/mL equal to 3%

The compound O=C(N/N=C/c1cccc(C(F)(F)F)c1O)c1cccc(Cl)c1 showed inhibition of growth at 0.05 µg/mL equal to 13.8%

The compound COc1ccc(O)c(C(=O)N/N=C(\C)c2cc(Cl)cc(Cl)c2O)c1 showed inhibition of growth at 0.05 µg/mL equal to 0.7%

The compound Cc1ccc(C(=O)N/N=C/c2cccc(Cl)c2O)cc1 showed inhibition of growth at 0.05 µg/mL equal to 22.3%

The compound Cc1cccc(C(=O)N/N=C/c2cc(C(F)(F)F)cc(Cl)c2O)c1 showed inhibition of growth at 0.05 µg/mL equal to 11.7%

The compound O=C(N/N=C/c1cc(C(F)(F)F)cc(Cl)c1O)c1cccc(Cl)c1 showed inhibition of growth at 0.05 µg/mL equal to 0%

The compound Cc1ccc(C(=O)N/N=C/c2cc(Cl)cc(Br)c2O)c(O)c1 showed inhibition of growth at 0.05 µg/mL equal to 25.6%

The compound C/C(=N\NC(=O)c1cccc(C)c1)c1cc(Br)cc(Br)c1O showed inhibition of growth at 0.05 µg/mL equal to 0%

The compound O=C(N/N=C/c1cc(C(F)(F)F)ccc1O)c1ccc(F)cc1 showed inhibition of growth at 0.05 µg/mL equal to 0%

The compound O=C(N/N=C/c1ccc(Cl)c(Cl)c1O)c1ccc([N+](=O)[O-])cc1 showed inhibition of growth at 0.05 µg/mL equal to 3.3%

The compound O=C(N/N=C/c1cc(C(F)(F)F)cc(Cl)c1O)c1ccc(Cl)cc1 showed inhibition of growth at 0.05 µg/mL equal to 6.9%

The compound O=C(N/N=C/c1ccc(Cl)c(Cl)c1O)c1cccc([N+](=O)[O-])c1 showed inhibition of growth at 0.05 µg/mL equal to 17.6%

The compound O=C(N/N=C/c1c(O)cccc1Cl)c1ccc(Cl)cc1 showed inhibition of growth at 0.05 µg/mL equal to 0%

The compound O=C(N/N=C/c1cc(C(F)(F)F)cc(Cl)c1O)c1cccc([N+](=O)[O-])c1 showed inhibition of growth at 0.05 µg/mL equal to 1.2%
